These entries and their values trace back to PubChem BioAssay (NCI).

# System: NCI-H226 lung
# assayOverview: NCI tumour cell line growth inhibition, 48 h
valueKind: TGI

Task item: Entry Cc1cc(Nc2nc(-c3cccnc3)nc3ccccc23)n[nH]1 needs its TGI filled in; supply it.
Reply: > 24.2 µM

Task item: Entry Cn1c(=O)c(NC(=O)C(Cl)(Cl)Cl)nc2ccccc21 needs its TGI filled in; supply it.
Reply: > 100 µM

Task item: Entry CS(=O)(=O)NNS(=O)(=O)c1ccccc1 needs its TGI filled in; supply it.
Reply: > 100 µM

Task item: Entry CCOC(=O)C(CC(C)C)NC(=O)CSc1nnc(COc2ccc(Cl)cc2)n1-c1ccccc1 (stereo unspecified) needs its TGI filled in; supply it.
Reply: 48.5 µM

Task item: Entry C(=N\Nc1ccc(-c2nc3ccccc3[nH]2)cc1)/c1c(-c2ccc(Cc3ccccc3)cc2)[nH]c2ccccc12 needs its TGI filled in; supply it.
Reply: > 100 µM

Task item: Entry CC(=O)NC1C(OCc2ccccc2)OC(CO)C(O)C1OC(C)C(=O)N[C@@H](C)C(=O)N[C@H](CCC(=O)OCCNc1c2ccccc2nc2cccc([N+](=O)[O-])c12)C(N)=O (stereo partly specified) needs its TGI filled in; supply it.
Reply: 0.0217 µM
